Recorded values, source ChEMBL document CHEMBL2157886.

# test: Octanol-water partition coefficient, log P of the compound
# Format: physicochemical
experimentalReadout: logP

1: COc1cc(/C=C/c2ccc(OCCC[18F])cc2)cc(OC)c1
2: CN(C)c1ccc(/C=C/c2cn(CC[18F])nn2)cc1
Rank 1 against 2 by their logP values and give the higher one. Lab log: write the label of the selected item as the result.
1

----------
# test: Displacement of [125I]TZDM from amyloid beta (1 to 42) aggregates after 3 hrs by gamma counting
pKi: −log10 of the molar value.
experimentalReadout: pKi

Check out these entries, answers already filled in.
# smilesRepresentation, observedMeasurement
records = [
    ("COc1cc(/C=C/c2ccc(OCCF)cc2)cc(OC)c1", 9.13),
    ("CN(C)c1ccc(/C=C/c2cn(CCF)nn2)cc1", 7.89),
    ("COc1cc(/C=C/c2ccc(OCCCF)cc2)cc(OC)c1", 9.31),
]

A: Oc1cc(O)cc(/C=C/c2ccc(F)cc2)c1
B: COc1cc(/C=C/c2ccc(F)cc2)cc(OC)c1
From the items above, decide which of A and B has the lower pKi reading. Identify your selection by its label.
A
(A: 7.40, B: 8.31)
